Biological target: T1, biotin-TUBA1A 440-450 (human)
T1 construct: C-terminal tail of human alpha-tubulin TUBA1A, amino acids 440-450, without the terminal tyrosine (detyrosinated); source: synthetic peptide (Thermo Fisher Scientific)
T1 peptide: Biotin-VEGEGEEEGEE
Test: SPR; steady-state binding assay, Biacore-T200; biotinylated peptides immobilized on a streptavidin (SA) sensor chip at 100-300 response units; A1aY1 titrated from 0.031 to 200 µM; 1x HBS-P+ (10 mM Hepes, 150 mM NaCl, 0.05% surfactant P20), 30 µl/min; 1:1 binding considered, one site total fit
Conditions: both partners purified
pKd: −log10 of the molar value. Where no end group is shown, it is not given here. The star is where a group is joined. Biotin = O=C1N[C@H]2[C@H](CS[C@H]2CCCCC(=O)*)N1
Measure name: pKd

A1aY1 binder (designed binder, A1aY1, an SSO7D mutant selected from a combinatorial yeast display library; (His6, thrombin site, A1aY1); Protein used in the SPR steady-state titrations; The results say 'without any tags'; the methods describe the stored protein as 9.3 kD, which is the size with His6 and thrombin site, and tell of thrombin cleavage only for the NMR sample; also called tyrosination sensor; source: E. coli …) MATVKFKYKGEEKQVDISKILSVGRYGKLIHFLYDLGGGKAGMGMVSEKDAPKELLQMLEKQKK: < 4.22
